tested on: Staphylococcus aureus; experiment: Anti-bacterial activity against methicillin-resistant Staphylococcus aureus ATCC 33591 by CLSI method; assay type: functional; conditions: Staphylococcus aureus, ATCC 33591
Non-standard residues stand in square brackets, D forms with d. Residues, ends and D or L forms follow the SMILES beside them. His(τ-Bzl) = N[C@@H](Cc1cn(Cc2ccccc2)cn1)C(=O)O; Phe(4-Me) = Cc1ccc(C[C@H](N)C(=O)O)cc1; 1Nal = N[C@@H](Cc1cccc2ccccc12)C(=O)O; Cha = N[C@@H](CC1CCCCC1)C(=O)O; Orn = NCCC[C@H](N)C(=O)O
Readout: MIC (µg/mL)
I only need the number, in µg/mL, no unit after it.

Compound | Measurement Units | MIC
Cc1ccc(C[C@H](NC(=O)[C@@H](Cc2ccccc2)NC(=O)[C@@H](Cc2c[nH]c3ccccc23)NC(=O)[C@@H](N)CCCCN)C(=O)N[C@H](Cc2ccccc2)C(=O)N[C@@H](Cc2cn(Cc3ccccc3)cn2)C(N)=O)cc1 (H-K[dW][dF][Phe(4-Me)][dF][His(τ-Bzl)]-NH2) | µg/mL | 20

Next compound, please.
Task item: Return value of MIC for input NCCC[C@H](N)C(=O)N[C@H](Cc1c[nH]c2ccccc12)C(=O)N[C@@H](CC1CCCCC1)C(=O)N[C@@H](Cc1cccc2ccccc12)C(=O)N[C@H](Cc1ccccc1)C(=O)N[C@@H](Cc1cn(Cc2ccccc2)cn1)C(N)=O (H-[Orn][dW][Cha][1Nal][dF][His(τ-Bzl)]-NH2) , no commentary.
Reply: 10

====

system: Staphylococcus aureus; test: Bactericidal activity against methicillin-resistant Staphylococcus aureus ATCC 33591 by CLSI method; format: functional
Non-standard residues stand in square brackets, D forms with d. Residues, ends and D or L forms follow the SMILES beside them. His(τ-Bzl) = N[C@@H](Cc1cn(Cc2ccccc2)cn1)C(=O)O; Phe(4-Me) = Cc1ccc(C[C@H](N)C(=O)O)cc1; 1Nal = N[C@@H](Cc1cccc2ccccc12)C(=O)O; Cha = N[C@@H](CC1CCCCC1)C(=O)O; Phg = N[C@H](C(=O)O)c1ccccc1; Orn = NCCC[C@H](N)C(=O)O; Dab = NCC[C@H](N)C(=O)O
Readout: MBC (µg/mL)
Just the number in µg/mL, nothing appended.

The cases that follow already have their MBC on record.
Compound | MBC (µg/mL)
NCCC[C@H](N)C(=O)N[C@H](Cc1c[nH]c2ccccc12)C(=O)N[C@@H](CC1CCCCC1)C(=O)N[C@H](C(=O)N[C@H](Cc1ccccc1)C(=O)N[C@@H](Cc1cn(Cc2ccccc2)cn1)C(N)=O)c1ccccc1 (H-[Orn][dW][Cha][Phg][dF][His(τ-Bzl)]-NH2) | 20
NCCC[C@H](N)C(=O)N[C@H](Cc1c[nH]c2ccccc12)C(=O)N[C@@H](CC1CCCCC1)C(=O)N[C@@H](CC1CCCCC1)C(=O)N[C@H](Cc1ccccc1)C(=O)N[C@@H](Cc1cn(Cc2ccccc2)cn1)C(N)=O (H-[Orn][dW][Cha][Cha][dF][His(τ-Bzl)]-NH2) | 20

Task item: Provide one value: measured MBC of CC[C@H](C)[C@H](NC(=O)[C@H](CC1CCCCC1)NC(=O)[C@@H](Cc1c[nH]c2ccccc12)NC(=O)[C@@H](N)CCCN)C(=O)N[C@@H](Cc1cccc2ccccc12)C(=O)N[C@@H](Cc1cn(Cc2ccccc2)cn1)C(N)=O (H-[Orn][dW][Cha]I[1Nal][His(τ-Bzl)]-NH2)
Reply: 10

Task item: Give MBC for Cc1ccc(C[C@H](NC(=O)[C@@H](Cc2ccccc2)NC(=O)[C@@H](Cc2c[nH]c3ccccc23)NC(=O)[C@@H](N)CCN)C(=O)N[C@H](Cc2ccccc2)C(=O)N[C@@H](Cc2cn(Cc3ccccc3)cn2)C(N)=O)cc1 (H-[Dab][dW][dF][Phe(4-Me)][dF][His(τ-Bzl)]-NH2)
Reply: 20

Task item: Specify measured MBC for Cc1ccc(C[C@H](NC(=O)[C@@H](Cc2ccccc2)NC(=O)[C@@H](Cc2c[nH]c3ccccc23)NC(=O)[C@@H](N)CCCNC(=N)N)C(=O)N[C@H](Cc2ccccc2)C(=O)N[C@@H](Cc2cn(Cc3ccccc3)cn2)C(N)=O)cc1 (H-R[dW][dF][Phe(4-Me)][dF][His(τ-Bzl)]-NH2) .
Reply: 20
